Assay: Inhibition of mixed lymphocyte reaction in rat PBMC cells assessed as reduction in [3H]-thymidine incorporation measured after 5 days in presence of Il-7 by microbeta counting method
Assay type: cell-based
Measure Name: IC50
Quick note: number first, unit second.

So what does the record say about IC50 for C[C@H]1COC[C@H](C)N1c1c(NC(=O)Nc2ccnc(C(F)(F)F)c2)cnc2cc(Cl)nn12 ?
600 nM

* * *

Would you kindly list solubility for each of these compounds?
Test: Solubility of the compound at pH 6.8
Format: physicochemical
Details: buffer
One number for each entry, in µM.

>>> experimental_value("COc1ncc(NC(=O)Nc2cnc3cc(Cl)nn3c2N2[C@@H](C)COC[C@@H]2C)cc1Cl")
81

For every item below, please supply its solubility.
1. C[C@H]1COCCN1c1c(NC(=O)Nc2cnc(OC3CCN(C)CC3)c(Cl)c2)cnc2ccc(F)cc12
2. COc1ncc(NC(=O)Nc2cnc3cc(Br)nn3c2N2CCOC[C@@H]2C)cc1Cl

1: 60; 2: 155

* * *

Kindly state pIC50 for each of the entries shown.
Biological target: Mucosa-associated lymphoid tissue lymphoma translocation protein 1 (Homo sapiens, UniProt Q9UDY8)
Sequence (Q9UDY8 whole entry): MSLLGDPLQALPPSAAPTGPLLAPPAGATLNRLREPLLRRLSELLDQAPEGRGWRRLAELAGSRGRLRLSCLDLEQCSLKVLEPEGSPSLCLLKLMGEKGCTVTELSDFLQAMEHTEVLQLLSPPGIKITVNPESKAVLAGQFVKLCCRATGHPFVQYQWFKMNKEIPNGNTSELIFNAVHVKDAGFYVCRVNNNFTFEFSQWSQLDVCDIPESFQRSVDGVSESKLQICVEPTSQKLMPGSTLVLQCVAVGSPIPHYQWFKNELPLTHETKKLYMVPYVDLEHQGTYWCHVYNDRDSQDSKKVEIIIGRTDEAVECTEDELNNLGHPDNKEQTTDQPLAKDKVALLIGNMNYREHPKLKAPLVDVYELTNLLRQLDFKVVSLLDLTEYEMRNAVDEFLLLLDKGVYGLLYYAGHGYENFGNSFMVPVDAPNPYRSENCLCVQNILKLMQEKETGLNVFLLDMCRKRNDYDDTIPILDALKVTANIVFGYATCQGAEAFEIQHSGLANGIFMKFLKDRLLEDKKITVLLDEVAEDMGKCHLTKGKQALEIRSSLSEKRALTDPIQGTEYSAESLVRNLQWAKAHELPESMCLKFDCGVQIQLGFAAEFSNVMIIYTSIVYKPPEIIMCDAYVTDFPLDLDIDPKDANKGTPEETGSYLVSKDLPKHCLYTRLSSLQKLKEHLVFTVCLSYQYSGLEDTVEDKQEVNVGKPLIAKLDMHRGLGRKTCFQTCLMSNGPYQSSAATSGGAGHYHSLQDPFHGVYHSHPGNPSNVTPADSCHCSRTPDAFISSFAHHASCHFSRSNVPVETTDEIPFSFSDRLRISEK
Assay: Allosteric inhibition of MALT1 in human OCI-LY3 cells assessed as reduction in BCL10 cleavage measured after 24 hrs by ELISA
Type: cell-based, OCILY3
Numbers only, as −log10 of the molar value.

Sample answers from the record:
>>> experimental_value("C[C@H]1COC[C@H](C)N1c1c(NC(=O)Nc2ccnc(C(F)(F)F)c2)cnc2cc(Cl)nn12")
6.80
>>> experimental_value("COc1ccc(NC(=O)NC2CSc3ccc(F)cc3C2)cc1Cl (racemic)")
5.37
>>> experimental_value("COc1ccc(NC(=O)Nc2cnc3ccc(Br)cc3c2Cl)cc1Cl")
6.29
>>> experimental_value("COc1ncc(NC(=O)Nc2cnc3ccc(C#N)cc3c2N(C)C2CCOCC2)cc1Cl")
6.72

Please examine the following record next.
Form field: reported pIC50 of CC1(C)COCCN1c1c(NC(=O)Nc2ccnc(C(F)(F)F)c2)cnc2cc(Cl)nn12
6.55

* * *

Assay: Intrinsic clearance in mouse liver microsome
Assay type: ADME
Settings: liver microsomes, read-out: CLH
Measure Name: microsomal CLint (µL/min/mg)
Answers are plain numbers, in µL/min/mg.

Given the entry C[C@H]1COC[C@H](C)N1c1c(NC(=O)Nc2ccnc(C(F)(F)F)c2)cnc2cc(Cl)nn12 , report its measured microsomal CLint.
82

* * *

Molecular target: Mucosa-associated lymphoid tissue lymphoma translocation protein 1 (Homo sapiens, UniProt Q9UDY8)
Sequence (Q9UDY8 whole entry): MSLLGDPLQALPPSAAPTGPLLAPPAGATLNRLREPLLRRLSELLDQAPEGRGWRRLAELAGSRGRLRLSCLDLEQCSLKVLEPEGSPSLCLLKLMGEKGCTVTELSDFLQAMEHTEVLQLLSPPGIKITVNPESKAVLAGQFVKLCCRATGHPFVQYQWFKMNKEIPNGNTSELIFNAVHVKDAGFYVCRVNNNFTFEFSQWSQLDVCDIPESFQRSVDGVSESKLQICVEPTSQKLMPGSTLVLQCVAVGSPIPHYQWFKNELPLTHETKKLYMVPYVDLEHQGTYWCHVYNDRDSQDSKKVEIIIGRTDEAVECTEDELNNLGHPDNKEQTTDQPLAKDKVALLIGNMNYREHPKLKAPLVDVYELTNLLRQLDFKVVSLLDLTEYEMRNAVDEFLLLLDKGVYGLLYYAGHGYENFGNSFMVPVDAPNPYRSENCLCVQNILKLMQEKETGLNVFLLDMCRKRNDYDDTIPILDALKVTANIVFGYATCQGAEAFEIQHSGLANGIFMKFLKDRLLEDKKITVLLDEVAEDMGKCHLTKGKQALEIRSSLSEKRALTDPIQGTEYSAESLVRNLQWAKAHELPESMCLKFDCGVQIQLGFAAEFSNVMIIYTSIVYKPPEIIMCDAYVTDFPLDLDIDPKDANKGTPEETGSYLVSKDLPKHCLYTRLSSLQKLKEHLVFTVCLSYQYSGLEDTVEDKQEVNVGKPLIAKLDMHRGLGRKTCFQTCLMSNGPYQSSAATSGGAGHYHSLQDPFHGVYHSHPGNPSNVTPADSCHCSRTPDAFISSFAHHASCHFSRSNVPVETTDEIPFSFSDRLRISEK
Experiment: Allosteric inhibition of MALT1-mediated T cell activation in human Jurkat cells assessed as decrease in PMA induced IL2 activation preincubated for 1 hr followed by addition of PMA measured after 5.5 hrs by luciferase reporter gene assay
Assay type: cell-based
Measure Name: IC50 (nM)
One number for each entry, in nM.

Looking for the measured IC50 of C[C@H]1COC[C@H](C)N1c1c(NC(=O)Nc2ccnc(C(F)(F)F)c2)cnc2cc(Cl)nn12 , can you help?
180

* * *

Test: Dose normalized AUC (0 to 24 hrs) in Sprague-Dawley rat at 3 mg/kg, po administered as cassette dosing
Type: ADME, organism-based
Details: in vivo
Measure Name: AUC/dose (nM·h)
Give bare numbers, in nM·h.

Quick one: AUC/dose of C[C@H]1COC[C@H](C)N1c1c(NC(=O)Nc2ccnc(C(F)(F)F)c2)cnc2cc(Cl)nn12 ?
547

* * *

Experiment: Protein binding in mouse plasma
Assay type: ADME, cell-free
Conditions: read-out: PPB (converted)
Measure Name: fraction unbound
Give bare numbers.

// fraction unbound lookup, key: C[C@H]1COC[C@H](C)N1c1c(NC(=O)Nc2ccnc(C(F)(F)F)c2)cnc2cc(Cl)nn12
0.011

* * *

Assay: Apparent permeability across apical to basolateral side in human Caco-2 cells
Assay type: ADME, cell-based
Measure Name: Papp A→B (×10⁻⁶ cm/s)
Give bare numbers, in ×10⁻⁶ cm/s.

Need Papp A→B, item C[C@H]1COC[C@H](C)N1c1c(NC(=O)Nc2ccnc(C(F)(F)F)c2)cnc2cc(Cl)nn12
1.47

* * *

Experiment: Half-life in Sprague-Dawley rat at 1 mg/kg, iv administered as cassette dosing
Format: ADME, organism-based
Conditions: in vivo
Measure Name: half-life
Answer by giving the amount and then stating its unit.

Returns the measured half-life for the input compound. Input: C[C@H]1COC[C@H](C)N1c1c(NC(=O)Nc2ccnc(C(F)(F)F)c2)cnc2cc(Cl)nn12
192 min

* * *

For each record, write down the corresponding IC50.
Biological target: Mucosa-associated lymphoid tissue lymphoma translocation protein 1 (Homo sapiens, UniProt Q9UDY8)
Sequence (Q9UDY8 whole entry): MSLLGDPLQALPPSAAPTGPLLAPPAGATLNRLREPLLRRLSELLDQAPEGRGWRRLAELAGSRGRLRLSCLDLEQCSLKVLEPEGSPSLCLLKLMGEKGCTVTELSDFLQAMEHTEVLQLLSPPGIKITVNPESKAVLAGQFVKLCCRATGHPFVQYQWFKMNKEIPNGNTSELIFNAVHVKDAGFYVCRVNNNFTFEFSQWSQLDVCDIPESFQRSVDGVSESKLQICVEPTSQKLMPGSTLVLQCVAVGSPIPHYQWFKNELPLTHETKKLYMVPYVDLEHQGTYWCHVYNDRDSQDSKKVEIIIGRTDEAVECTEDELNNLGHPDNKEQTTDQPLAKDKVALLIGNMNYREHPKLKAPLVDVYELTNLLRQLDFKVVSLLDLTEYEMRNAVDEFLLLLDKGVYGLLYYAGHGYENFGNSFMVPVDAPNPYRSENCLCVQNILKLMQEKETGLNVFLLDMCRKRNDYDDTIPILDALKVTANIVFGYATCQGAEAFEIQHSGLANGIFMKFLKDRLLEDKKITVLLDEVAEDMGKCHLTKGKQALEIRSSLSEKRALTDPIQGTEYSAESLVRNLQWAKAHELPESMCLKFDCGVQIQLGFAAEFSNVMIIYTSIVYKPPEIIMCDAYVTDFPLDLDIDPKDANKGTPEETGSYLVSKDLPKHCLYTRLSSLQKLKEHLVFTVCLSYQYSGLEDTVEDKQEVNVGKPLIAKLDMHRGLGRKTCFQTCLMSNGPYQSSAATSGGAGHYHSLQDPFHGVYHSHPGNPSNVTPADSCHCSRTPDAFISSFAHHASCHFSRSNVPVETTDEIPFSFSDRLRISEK
Test: Allosteric inhibition of human wild-type […] MALT1 (329 to 824 residues) protease activity using Ac-Leu-Arg-Ser-Arg Rh110-dPro as substrate preincubated for 60 mins followed by substrate addition and measured after 60 mins by fluorescence assay
One number for each entry, in nM.

>>> experimental_value("COc1ncc(NC(=O)Nc2cnc3cc(Cl)nn3c2N2CCOCC2(C)C)cc1Cl")
2
>>> experimental_value("COc1ccc(NC(=O)NC2COc3ccc(C#N)cc3C2)cc1Cl (racemic)")
150
>>> experimental_value("O=C(Nc1ccc(-n2cncn2)c(Cl)c1)N[C@H]1COc2ccc(Br)cc2C1")
26
>>> experimental_value("COc1ncc(NC(=O)Nc2cnc3ccc(C#N)cc3c2N(C)C2CCOCC2)cc1Cl")
2
>>> experimental_value("COc1ccc(NC(=O)Nc2cnc3ccc(C#N)cc3c2N(C)C2CCOCC2)cc1Cl")
8

Hi there! I need IC50 for each item below, if you can.
1. COc1ccc(NC(=O)CC2COc3ccccc3C2)cc1Cl (stereo not given)
2. COc1ccc(NC(=O)NC2COc3ccc(Br)cc3C2)cc1Cl (racemic)
3. COc1ccc(NC(=O)Nc2cnc3ccc(C#N)cc3c2N2CCOC[C@@H]2C)cc1Cl
4. C[C@H]1COCCN1c1c(NC(=O)Nc2cnc(OC3CCN(C)CC3)c(Cl)c2)cnc2ccc(F)cc12

1: 1000; 2: 50; 3: 6; 4: 70

The measured values listed here are drawn from ChEMBL document CHEMBL4673331.
